- system-under-test: PAI-1 (Homo sapiens)
- Sequence (P05121 24-402): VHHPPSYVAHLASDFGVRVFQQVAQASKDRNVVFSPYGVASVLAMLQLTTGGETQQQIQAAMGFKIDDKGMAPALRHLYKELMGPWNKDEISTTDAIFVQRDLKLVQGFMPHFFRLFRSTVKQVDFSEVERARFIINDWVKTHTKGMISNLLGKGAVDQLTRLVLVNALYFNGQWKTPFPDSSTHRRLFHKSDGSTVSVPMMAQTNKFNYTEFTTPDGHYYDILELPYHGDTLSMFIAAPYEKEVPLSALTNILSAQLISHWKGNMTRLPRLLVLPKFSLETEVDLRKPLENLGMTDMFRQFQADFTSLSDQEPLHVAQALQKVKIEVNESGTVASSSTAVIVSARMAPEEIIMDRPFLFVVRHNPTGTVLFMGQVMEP
- assay: PAI chromogenic substrate assay (first S2251 assay, tPA/plasminogen system)
- Assay type: biochemical
- condition-parameters: Concentration 25 μm
# Inhibition of PAI-1 in the first S2251 chromogenic substrate assay listing for each entry below
The figure you give is taken to be in %; do not add the unit.

Recorded results for 4 molecules are shown here.
>>> reported_measurement("COc1ccc(/C=c2\\[nH]c(=O)/c(=C/c3ccccc3)[nH]c2=O)cc1OC")
33
>>> reported_measurement("COc1ccc(/C=c2\\[nH]c(=O)/c(=C/c3cccc(CSC(C)=O)c3)[nH]c2=O)cc1")
44
>>> reported_measurement("COc1ccc(/C=c2\\[nH]c(=O)/c(=C/c3ccc(CS(C)(=O)=O)cc3)[nH]c2=O)cc1")
25
>>> reported_measurement("O=c1[nH]/c(=C\\c2ccccc2Br)c(=O)[nH]/c1=C\\c1ccccc1")
11

For reference, reported Inhibition of PAI-1 in the first S2251 chromogenic substrate assay for COc1ccc(/C=c2\[nH]c(=O)/c(=C/c3ccc(OC(C)C)cc3)[nH]c2=O)cc1 stands at 8

Summary for this molecule, COc1ccc(/C=c2\[nH]c(=O)/c(=C/c3ccc(C(C)(C)C)cc3)[nH]c2=O)cc1 : Inhibition of PAI-1 in the first S2251 chromogenic substrate assay is 22

Inhibition of PAI-1 in the first S2251 chromogenic substrate assay for O=c1[nH]/c(=C\c2cccc([N+](=O)[O-])c2)c(=O)[nH]/c1=C\c1cccc([N+](=O)[O-])c1 is 2

response.value for CN(C)c1ccc(/C=c2\[nH]c(=O)/c(=C/c3ccccc3)[nH]c2=O)c2ccccc12 (field: Inhibition of PAI-1 in the first S2251 chromogenic substrate assay) = 66

// Inhibition of PAI-1 in the first S2251 chromogenic substrate assay lookup, molecule = COC(=O)Nc1ccc(/C=c2\[nH]c(=O)/c(=C/c3ccc(OC)cc3)[nH]c2=O)cc1 , result: 1

Reference for the values: patent US5700804A
